These measurements were taken from the supplement of paper PMC6757056.

B1: library; a variant is named by its letters at N, in order (parent)
chain: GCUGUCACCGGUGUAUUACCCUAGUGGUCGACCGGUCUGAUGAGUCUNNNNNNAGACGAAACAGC

Variants of: B1
protocol.details: normalized RNA/DNA level without ligand (relative to sTRSVctl = 100) (log10 (% of sTRSVctl)); ligand: hypoxanthine (xanthine aptamer); higher = less ribozyme self-cleavage, higher mRNA level
condition.summary: HEK293T, reporter: mCherry (pCS4076), ligand present: no
Answer each item with its documented normalized RNA/DNA level without ligand (log10).
Numbers only.

// worked examples, normalized RNA/DNA level without ligand (log10) included
GCUGUCACCGGUGUAUUACCCUAGUGGUCGACCGGUCUGAUGAGUCUAGAUUCAGACGAAACAGC [AGAUUC]
1.92
GCUGUCACCGGUGUAUUACCCUAGUGGUCGACCGGUCUGAUGAGUCUAUAGACAGACGAAACAGC [AUAGAC]
1.8
GCUGUCACCGGUGUAUUACCCUAGUGGUCGACCGGUCUGAUGAGUCUAUAGAGAGACGAAACAGC [AUAGAG]
1.31

Return reported normalized RNA/DNA level without ligand (log10) values for all items listed beneath this line.
1. GCUGUCACCGGUGUAUUACCCUAGUGGUCGACCGGUCUGAUGAGUCUCACACGAGACGAAACAGC [CACACG]
2. GCUGUCACCGGUGUAUUACCCUAGUGGUCGACCGGUCUGAUGAGUCUGGAGCUAGACGAAACAGC [GGAGCU]

1.86
1.96
